In this section, each of the compounds is paired with its reported TM (main transition temperature).
# assay: Main transition temperature (TM) of phosphatidylcholines
# Assay type: physicochemical
# protocol-conditions: acyl chains at positions 1 and 2 of glycero-3-phosphocholine or 1 and 3 of glycero-2-phosphocholine
Only the number, expressed in °C, is required.

CCCCCCCCCCCCCCCC(=O)OC(COC(=O)CCCCCCCCCCCCC)COP(=O)([O-])OCC[N+](C)(C)C (stereo not drawn); 37
CCCCCCCCCCCCCCCCCCCCCCCC(=O)OC[C@H](COP(=O)([O-])OCC[N+](C)(C)C)OC(=O)CCCCCCCCCCCCCCCCCCCCCCC; 80
CCCCCCCCCCCCCC(=O)OC[C@H](COP(=O)([O-])OCC[N+](C)(C)C)OC(=O)CCCCCCCCCCCCC; 23
CCCCCCCCCCCCCC(=O)OCC(COC(=O)CCCCCCCCCCCCC)OP(=O)([O-])OCC[N+](C)(C)C; 19
CCCCCCCCCCCCCCCCCC(=O)OC[C@H](COP(=O)([O-])OCC[N+](C)(C)C)OC(=O)CCCCCCCCCCCCC; 33

Look up and report measured TM (main transition temperature) for this entry: CCCCCCCCCCCCCCCCCC(=O)OCC(COP(=O)([O-])OCC[N+](C)(C)C)OC(=O)CCCCCCCCCCCCCCCCC (stereo not drawn)
56

###

# assay: Main transition temperature (TM) of phosphatidylcholines
# Format: physicochemical
# protocol-conditions: acyl chains at positions 1 and 2 of glycero-3-phosphocholine or 1 and 3 of glycero-2-phosphocholine
experimental-endpoint: TM (main transition temperature) (°C)
Only the number, expressed in °C, is required.

CCCCCCCC/C=C\CCCCCCCC(=O)O[C@H](COC(=O)CCCCCCCCCCCCCCC)COP(=O)([O-])OCC[N+](C)(C)C; 5
CCCCCCCCCCCCCCCCCC(=O)O[C@H](COC(=O)CCCCCCCCCCCCCCC)COP(=O)([O-])OCC[N+](C)(C)C; 52

Moving on to another compound below.
Look up and report measured TM (main transition temperature) for this entry: CCCCCCCCCCCCCCCCCC(=O)OCC(COC(=O)CCCCCCCCCCCCC)OP(=O)([O-])OCC[N+](C)(C)C (stereo not drawn)
46

###

# assay: Main transition temperature (TM) of phosphatidylcholines
# Format: physicochemical
# protocol-conditions: acyl chains at positions 1 and 2 of glycero-3-phosphocholine or 1 and 3 of glycero-2-phosphocholine
experimental-endpoint: TM (main transition temperature) (°C)
Only the number, expressed in °C, is required.

# annotated cases, reported TM (main transition temperature) shown
CCCCCCCC/C=C\CCCCCCCC(=O)O[C@H](COC(=O)CCCCCCCCCCCCCCCCCCCCC)COP(=O)([O-])OCC[N+](C)(C)C [1-behenoyl-2-oleoyl-]; 14
CCCCCCCC/C=C\CCCCCCCC(=O)O[C@H](COC(=O)CCCCCCCCCCCCCCCCC)COP(=O)([O-])OCC[N+](C)(C)C [1-stearoyl-2-oleoyl-]; 7
CCCCCCCCCCCCCCCCCCCCCC(=O)OC[C@H](COP(=O)([O-])OCC[N+](C)(C)C)OC(=O)CCCCCCCCCCCCCCCCCCCCC [1,2-dibehenoyl-]; 75
CCCCCCCCCCCCCCCCCCCC(=O)OC[C@H](COP(=O)([O-])OCC[N+](C)(C)C)OC(=O)CCCCCCCCCCCCCCCCCCC [1,2-diarachinoyl-]; 66
CCCCCCCCCCCCCCCCCC(=O)OCC(COC(=O)CCCCCCCCCCCCCCCCC)OP(=O)([O-])OCC[N+](C)(C)C [1,3-distearoyl-]; 53
CCCCCCCCCCCCCCCC(=O)OCC(COC(=O)CCCCCCCCCCCCCCC)OP(=O)([O-])OCC[N+](C)(C)C [1,3-dipalmitoyl-]; 39
CCCCCCCCCCCCCCCC(=O)OC[C@H](COP(=O)([O-])OCC[N+](C)(C)C)OC(=O)CCCCCCCCCCC [1-palmitoyl-2-lauroyl-]; 11
CCCCCCCCCCCCCCCCCC(=O)OC[C@H](COP(=O)([O-])OCC[N+](C)(C)C)OC(=O)CCCCCCCCCCCCCCC [1-stearoyl-2-palmitoyl-]; 48

Look up and report measured TM (main transition temperature) for this entry: CCCCCCCCCCCCCCCC(=O)OCC(COP(=O)([O-])OCC[N+](C)(C)C)OC(=O)CCCCCCCCCCCCCCC (stereo not drawn) [1,2-dipalmitoyl-, 1,2-di-palmitoylglycero-3-phosphocholine]
41

Look up and report measured TM (main transition temperature) for this entry: CCCCCCCCCCCCCCCCCC(=O)OC[C@H](COP(=O)([O-])OCC[N+](C)(C)C)OC(=O)CCCCCCCCCCC [1-stearoyl-2-lauroyl-]
17

Look up and report measured TM (main transition temperature) for this entry: CCCCCCCCCCCCCCCCCC(=O)O[C@H](COC(=O)CCCCCCCCCCCCC)COP(=O)([O-])OCC[N+](C)(C)C [1-myristoyl-2-stearoyl-]
42

Look up and report measured TM (main transition temperature) for this entry: CCCCCCCCCCCCCCCC(=O)OC[C@H](COP(=O)([O-])OCC[N+](C)(C)C)OC(=O)CCCCCCCCCCCCC [1-palmitoyl-2-myristoyl-]
27
